TARGET ENTITY: GST-Ap-NF-kB RHD (Exaiptasia pallida (Aiptasia), UniProt A0A913YAJ5 2-422)
Sequence: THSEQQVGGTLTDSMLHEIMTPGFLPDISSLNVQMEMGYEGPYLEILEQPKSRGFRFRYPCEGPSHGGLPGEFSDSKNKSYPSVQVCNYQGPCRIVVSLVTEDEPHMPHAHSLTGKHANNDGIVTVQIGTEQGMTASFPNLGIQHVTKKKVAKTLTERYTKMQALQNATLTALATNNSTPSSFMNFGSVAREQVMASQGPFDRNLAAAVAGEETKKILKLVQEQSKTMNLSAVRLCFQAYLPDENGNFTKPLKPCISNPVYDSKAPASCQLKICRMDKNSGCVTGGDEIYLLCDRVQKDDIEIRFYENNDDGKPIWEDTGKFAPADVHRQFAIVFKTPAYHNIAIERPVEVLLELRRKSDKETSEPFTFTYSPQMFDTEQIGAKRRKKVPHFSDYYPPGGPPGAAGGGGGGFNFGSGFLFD
PROCEDURE SUMMARY: protein-binding microarray (PBM); PBM: ~300 nM protein, 6 mM HEPES pH 7.8, 80 mM KCl, 0.5 mM EDTA, 0.5 mM EGTA, 6% glycerol, 35 ng/ul poly-dIdC, 1% milk, 1 h, room temperature; Ap Aiptasia and Nv Nematostella (sea anemones) / Co Capsaspora / Aq Amphimedon (sponge) / Dm Drosophila / Hu human; RHD is the Rel homology domain; high values mean tight binding
ASSAY SETUP: dsDNA, one strand shown
// reported binding signal for each item listed
MEASURED PARAMETER: binding signal

SEQUENCE CODE: CCGATTAACATCACTCCCCCCCATGATGTTAATCGGGTCTTGATTCGCTTGACGCTGCTG
TARGET ENTITY: GST-Ap-NF-kB RHD (Exaiptasia pallida (Aiptasia), UniProt A0A913YAJ5 2-422)
ENDPOINT RESULT: 5.11 z-score
--
SEQUENCE CODE: CCGATTAACATCAAGCGTTCCCCTGATGTTAATCGGGTCTTGATTCGCTTGACGCTGCTG
TARGET ENTITY: GST-Ap-NF-kB RHD (Exaiptasia pallida (Aiptasia), UniProt A0A913YAJ5 2-422)
ENDPOINT RESULT: 5.35 z-score
--
SEQUENCE CODE: CCGATTAACATCAGAATTGCCCCTGATGTTAATCGGGTCTTGATTCGCTTGACGCTGCTG
TARGET ENTITY: GST-Ap-NF-kB RHD (Exaiptasia pallida (Aiptasia), UniProt A0A913YAJ5 2-422)
ENDPOINT RESULT: 2.58 z-score
--
SEQUENCE CODE: CCGATTAACATCAGGAAAACACCTGATGTTAATCGGGTCTTGATTCGCTTGACGCTGCTG
TARGET ENTITY: GST-Ap-NF-kB RHD (Exaiptasia pallida (Aiptasia), UniProt A0A913YAJ5 2-422)
ENDPOINT RESULT: 2.56 z-score
--
SEQUENCE CODE: CCGATTAACATCAGGGGAGTGGATGATGTTAATCGGGTCTTGATTCGCTTGACGCTGCTG
TARGET ENTITY: GST-Ap-NF-kB RHD (Exaiptasia pallida (Aiptasia), UniProt A0A913YAJ5 2-422)
ENDPOINT RESULT: 3.01 z-score
